Answer each item with its documented combination Emax.
test system: BT-474 (Breast Carcinoma); assay: combination Emax (second highest fraction inhibited in the dose matrix, 72 h); higher = more inhibition; extreme values may be limits of the assay
One number for each entry.

Batch request: combination Emax for each of the following molecules.
1. CCN(CCO)CCCOc1ccc2c(Nc3cc(CC(=O)Nc4cccc(F)c4)[nH]n3)ncnc2c1 [AZD2811] + O=C(c1cc(Cc2n[nH]c(=O)c3ccccc23)ccc1F)N1CCN(C(=O)C2CC2)CC1 [Olaparib] (first compound max 1 µM, 7x7, partner max 10 µM)
2. Cc1cc2ncnn2cc1Nc1ncc2c(n1)n(C1CCOCC1)c(=O)n2C [AZD7648] + C=CCn1c(=O)c2cnc(Nc3ccc(N4CCN(C)CC4)cc3)nc2n1-c1cccc(C(C)(C)O)n1 [AZD1775] (first compound max 10 µM, partner max 1 µM)
3. C[C@@H]1COCCN1c1cc(C2([S@](C)(=N)=O)CC2)nc(-c2ccnc3[nH]ccc23)n1 [AZD6738] + O=C(c1cc(Cc2n[nH]c(=O)c3ccccc23)ccc1F)N1CCN(C(=O)C2CC2)CC1 [Olaparib] (first compound max 10 µM, 7x7, partner max 10 µM)
4. Cc1c2c(nn1C)CSCc1cc(n(C)n1)CSc1cc(c3ccccc3c1)OCCCc1c(C(=O)O)n(C)c3c-2c(Cl)ccc13 [AZD5991] + C[C@@H]1COCCN1C2=NC(=NC(=C2)C3(CC3)[S@](=N)(=O)C)C4=C5C=CNC5=NC=C4 [AZD6738] (first compound max 1 µM, 7x7, partner max 10 µM)
5. COc1nnc2ccc(N3CCC(c4ccc(OCCN5CCN(C)C(=O)[C@H]5C)cc4)CC3)nn12 [AZD5153] + C=CCn1c(=O)c2cnc(Nc3ccc(N4CCN(C)CC4)cc3)nc2n1-c1cccc(C(C)(C)O)n1 [AZD1775] (first compound max 1 µM, partner max 1 µM)

**A:**
0.168
0.324
0.218
0.334
0.526

Items follow; give combination Emax for each.
1. CC1(C)CCC(CN2CCN(c3ccc(C(=O)NS(=O)(=O)c4ccc(NCC5CCOCC5)c([N+](=O)[O-])c4)c(Oc4cnc5[nH]ccc5c4)c3)CC2)=C(c2ccc(Cl)cc2)C1 [Venetoclax] + COc1cc(Nc2ncc3c(n2)-c2ccc(Cl)cc2C(c2c(F)cccc2OC)=NC3)ccc1C(=O)O [Alisertib] (first compound max 1 µM, 7x7, partner max 10 µM)
2. COc1nnc2ccc(N3CCC(c4ccc(OCCN5CCN(C)C(=O)[C@H]5C)cc4)CC3)nn12 [AZD5153] + CN(CC[C@H](CSC1=CC=CC=C1)NC2=C(C=C(C=C2)S(=O)(=O)NC(=O)C3=CC=C(C=C3)N4CCC(CC4)[C@H](C5=CC=CC=C5C6=CC=C(C=C6)Cl)O)S(=O)(=O)C(F)(F)F)CCO [AZD4320] (first compound max 1 µM, 7x7, partner max 1 µM)

**A:**
1: 0.242; 2: 0.531
